Give Relative expression of α-SMA (α-SMA/β-actin, %) for every item shown.
system: Hepatic stellate cell strain LX-2; test: In vitro inhibition of hepatic fibrosis: expression of LX-2 cell activation marker α-SMA (Western Blot, α-SMA/β-actin); type: cell-based, human; conditions: LX-2 cells, 1 μM, 48 hours, negative control = 100%
*1 amine or outer side, *2 acyl side, *3 side chain or, on linkers, in order; H or OH if unused. Primed or numbered codes have the meaning given here. Where no end group is shown, it is not given here. Side-chain parts run from the residue outwards. [ ]: non-standard residue; d: D form. The star is where a group is joined. C18 diacid = O=C(O)CCCCCCCCCCCCCCCCC(=O)*; γGlu = O=C(O)[C@H](CCC(=O)[*:2])N[*:1]; Stearoyl = CCCCCCCCCCCCCCCCCC(=O)*; PEG2′ = not defined here; Aib = CC(C)(N)C(=O)O
Use % as the unit, but write only the number.

[in] Note Relative expression of α-SMA (α-SMA/β-actin, %) for the substance shown: His-(D-Ser)-Gln-Gly-Thr-Phe-Thr-Ser-Asp-Tyr-Ser-Lys-Tyr-Leu-Asp-Lys(PEG2-PEG2-CO(CH2)16CO2H)-Arg-Arg-Ala-Gln-Asp-Phe-Val-Gln-Trp-Leu-Met-Asn-Thr-Gly-Gly-Pro-Ser-Ser-Gly-Ala-Pro-Pro-Pro-Ser-NH2 (H[dS]QGTFTSDYSKYLDK([PEG2′-PEG2′-C18 diacid])RRAQDFVQWLMNTGGPSSGAPPPS-NH2) [Compound 35]
[out] 61.28

[in] Note Relative expression of α-SMA (α-SMA/β-actin, %) for the substance shown: His-Aib-Gln-Gly-Thr-Phe-Thr-Ser-Asp-Lys(PEG2-PEG2-γGlu-CO(CH2)16CH3)-Ser-Lys-Tyr-Leu-Asp-Glu-Arg-Arg-Ala-Gln-Asp-Phe-Val-Gln-Trp-Leu-Leu-Asp-Gly-Gly-Pro-Ser-Ser-Gly-Ala-Pro-Pro-Pro-Ser-NH2 (H[Aib]QGTFTSDK([PEG2′-PEG2′-γGlu-Stearoyl])SKYLDERRAQDFVQWLLDGGPSSGAPPPS-NH2) [Compound 14]
[out] 92.80

[in] Note Relative expression of α-SMA (α-SMA/β-actin, %) for the substance shown: His-Aib-Gln-Gly-Thr-Phe-Thr-Ser-Asp-Lys(PEG2-PEG2-γGlu-CO(CH2)16CO2H)-Ser-Lys-Tyr-Leu-Asp-Aib-Arg-Arg-Ala-Gln-Asp-Phe-Val-Gln-Trp-Leu-Leu-Asp-Gly-Gly-Pro-Ser-Ser-Gly-Ala-Pro-Pro-Pro-Ser-NH2 (H[Aib]QGTFTSDK([PEG2′-PEG2′-γGlu-C18 diacid])SKYLD[Aib]RRAQDFVQWLLDGGPSSGAPPPS-NH2) [Compound 19]
[out] 43.46

* * *

system: Hepatic stellate cell strain LX-2; assay: In vitro inhibition of hepatic fibrosis: expression of LX-2 cell activation marker α-SMA (Western Blot, α-SMA/β-actin); format: cell-based, human; details: LX-2 cells, 1 μM, 48 hours, negative control = 100%
*1 amine or outer side, *2 acyl side, *3 side chain or, on linkers, in order; H or OH if unused. Primed or numbered codes have the meaning given here. Where no end group is shown, it is not given here. Side-chain parts run from the residue outwards. [ ]: non-standard residue; d: D form. The star is where a group is joined. C18 diacid = O=C(O)CCCCCCCCCCCCCCCCC(=O)*; γGlu = O=C(O)[C@H](CCC(=O)[*:2])N[*:1]; Stearoyl = CCCCCCCCCCCCCCCCCC(=O)*; Palmitoyl = CCCCCCCCCCCCCCCC(=O)*; Nle = CCCC[C@H](N)C(=O)O; PEG2′ = not defined here; Aib = CC(C)(N)C(=O)O
Give Relative expression of α-SMA (α-SMA/β-actin, %) for every item shown.
Use % as the unit, but write only the number.

[in] Name the recorded Relative expression of α-SMA (α-SMA/β-actin, %) of His-(D-Ser)-Gln-Gly-Thr-Phe-Thr-Ser-Asp-Tyr-Ser-Lys-Tyr-Leu-Asp-Lys(PEG2-PEG2-γGlu-CO(CH2)14CH3)-Arg-Arg-Ala-Gln-Asp-Phe-Val-Gln-Trp-Leu-Nle-Asn-Thr-Gly-Gly-Pro-Ser-Ser-Gly-Ala-Pro-Pro-Pro-Ser-NH2 (H[dS]QGTFTSDYSKYLDK([PEG2′-PEG2′-γGlu-Palmitoyl])RRAQDFVQWL[Nle]NTGGPSSGAPPPS-NH2) [Compound 37] , assay system Hepatic stellate cell strain LX-2.
[out] 42.45

[in] Name the recorded Relative expression of α-SMA (α-SMA/β-actin, %) of His-(D-Ser)-Gln-Gly-Thr-Phe-Thr-Ser-Asp-Tyr-Ser-Lys-Tyr-Leu-Asp-Ser-Lys(PEG2-PEG2-γGlu-CO(CH2)16CH3)-Ala-Ala-His-Asp-Phe-Val-Glu-Trp-Leu-Leu-Asn-Gly-Gly-Pro-Ser-Ser-Gly-Ala-Pro-Pro-Pro-Ser-NH2 (H[dS]QGTFTSDYSKYLDSK([PEG2′-PEG2′-γGlu-Stearoyl])AAHDFVEWLLNGGPSSGAPPPS-NH2) [Compound 22] , assay system Hepatic stellate cell strain LX-2.
[out] 90.56

[in] Name the recorded Relative expression of α-SMA (α-SMA/β-actin, %) of His-(D-Ser)-Gln-Gly-Thr-Phe-Thr-Ser-Asp-Tyr-Ser-Lys(PEG2-PEG2-γGlu-CO(CH2)16CO2H)-Lys-Leu-Asp-Aib-Arg-Arg-Ala-Gln-Asp-Phe-Val-Gln-Trp-Leu-Met-Asn-Thr-Gly-Gly-Pro-Ser-Ser-Gly-Ala-Pro-Pro-Pro-Ser-NH2 (H[dS]QGTFTSDYSK([PEG2′-PEG2′-γGlu-C18 diacid])KLD[Aib]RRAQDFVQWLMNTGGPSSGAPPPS-NH2) [Compound 20] , assay system Hepatic stellate cell strain LX-2.
[out] 68.39

* * *

test system: Hepatic stellate cell strain LX-2; experiment: In vitro inhibition of hepatic fibrosis: expression of LX-2 cell activation marker α-SMA (Western Blot, α-SMA/β-actin); assay type: cell-based, human; settings: LX-2 cells, 1 μM, 48 hours, negative control = 100%
*1 amine or outer side, *2 acyl side, *3 side chain or, on linkers, in order; H or OH if unused. Primed or numbered codes have the meaning given here. Where no end group is shown, it is not given here. Side-chain parts run from the residue outwards. [ ]: non-standard residue; d: D form. The star is where a group is joined. C18 diacid = O=C(O)CCCCCCCCCCCCCCCCC(=O)*; γGlu = O=C(O)[C@H](CCC(=O)[*:2])N[*:1]; Stearoyl = CCCCCCCCCCCCCCCCCC(=O)*; PEG2′ = not defined here; Aib = CC(C)(N)C(=O)O
Test Readout: Relative expression of α-SMA (α-SMA/β-actin, %)
Use % as the unit, but write only the number.

[in] Note Relative expression of α-SMA (α-SMA/β-actin, %) for the substance shown: His-(D-Ser)-Gln-Gly-Thr-Phe-Thr-Ser-Asp-Tyr-Ser-Lys-Tyr-Leu-Asp-Glu-Lys-Ala-Ala-Lys(PEG2-PEG2-γGlu-CO(CH2)16CH3)-Glu-Phe-Ile-Glu-Trp-Leu-Leu-Arg-Ala-NH2 (H[dS]QGTFTSDYSKYLDEKAAK([PEG2′-PEG2′-γGlu-Stearoyl])EFIEWLLRA-NH2) [Compound 24]
[out] 82.42

[in] Note Relative expression of α-SMA (α-SMA/β-actin, %) for the substance shown: His-(D-Ser)-Gln-Gly-Thr-Phe-Thr-Ser-Asp-Tyr-Ser-Lys-Tyr-Leu-Asp-Aib-Lys(PEG2-PEG2-γGlu-CO(CH2)16CO2H)-Arg-Ala-Gln-Asp-Phe-Val-Gln-Trp-Leu-Met-Asn-Thr-Gly-Gly-Pro-Ser-Ser-Gly-Ala-Pro-Pro-Pro-Ser-NH2 (H[dS]QGTFTSDYSKYLD[Aib]K([PEG2′-PEG2′-γGlu-C18 diacid])RAQDFVQWLMNTGGPSSGAPPPS-NH2) [Compound 7]
[out] 73.52

* * *

test system: Hepatic stellate cell strain LX-2; assay: In vitro inhibition of hepatic fibrosis: expression of LX-2 cell activation marker α-SMA (Western Blot, α-SMA/β-actin); assay type: cell-based, human; conditions: LX-2 cells, 1 μM, 48 hours, negative control = 100%
*1 amine or outer side, *2 acyl side, *3 side chain or, on linkers, in order; H or OH if unused. Primed or numbered codes have the meaning given here. Where no end group is shown, it is not given here. Side-chain parts run from the residue outwards. [ ]: non-standard residue; d: D form. The star is where a group is joined. C18 diacid = O=C(O)CCCCCCCCCCCCCCCCC(=O)*; C16 diacid = O=C(O)CCCCCCCCCCCCCCC(=O)*; γGlu = O=C(O)[C@H](CCC(=O)[*:2])N[*:1]; PEG2′ = not defined here; Aib = CC(C)(N)C(=O)O
Give Relative expression of α-SMA (α-SMA/β-actin, %) for every item shown.
Use % as the unit, but write only the number.

[in] Name the recorded Relative expression of α-SMA (α-SMA/β-actin, %) of His-(D-Ser)-Gln-Gly-Thr-Phe-Thr-Ser-Asp-Tyr-Ser-Lys-Tyr-Leu-Asp-Glu-Lys-Ala-Ala-Lys(PEG2-PEG2-γGlu-CO(CH2)16CO2H)-Glu-Phe-Ile-Glu-Trp-Leu-Leu-Asn-Gly-Gly-Pro-Ser-Ser-Gly-Ala-Pro-Pro-Pro-Ser-NH2 (H[dS]QGTFTSDYSKYLDEKAAK([PEG2′-PEG2′-γGlu-C18 diacid])EFIEWLLNGGPSSGAPPPS-NH2) [Compound 26] , assay system Hepatic stellate cell strain LX-2.
[out] 94.44

[in] Name the recorded Relative expression of α-SMA (α-SMA/β-actin, %) of His-Aib-Gln-Gly-Thr-Phe-Thr-Ser-Asp-Lys(PEG2-PEG2-γGlu-CO(CH2)14CO2H)-Ser-Lys-Tyr-Leu-Asp-Aib-Arg-Arg-Ala-Gln-Asp-Phe-Val-Gln-Trp-Leu-Leu-Asp-Gly-Gly-Pro-Ser-Ser-Gly-Ala-Pro-Pro-Pro-Ser-NH2 (H[Aib]QGTFTSDK([PEG2′-PEG2′-γGlu-C16 diacid])SKYLD[Aib]RRAQDFVQWLLDGGPSSGAPPPS-NH2) [Compound 11] , assay system Hepatic stellate cell strain LX-2.
[out] 96.78

[in] Name the recorded Relative expression of α-SMA (α-SMA/β-actin, %) of His-(D-Ser)-Gln-Gly-Thr-Phe-Thr-Ser-Asp-Tyr-Ser-Lys-Tyr-Leu-Asp-Glu-Lys-Ala-Ala-Lys(PEG2-PEG2-γGlu-CO(CH2)14CO2H)-Glu-Phe-Ile-Glu-Trp-Leu-Leu-Asn-Gly-Gly-Pro-Ser-Ser-Gly-Ala-Pro-Pro-Pro-Ser-NH2 (H[dS]QGTFTSDYSKYLDEKAAK([PEG2′-PEG2′-γGlu-C16 diacid])EFIEWLLNGGPSSGAPPPS-NH2) [Compound 27] , assay system Hepatic stellate cell strain LX-2.
[out] 92.34

Where these numbers come from: patent US11197914B2
